# experiment.notes: Solubility of corticosteroids in neat solvents, measured gravimetrically
# Type: physicochemical
# experimental.context: neat PG monolaurate; room temperature; examined at about 24 hours
assay.metric: Solubility in PG Monolaurate (% w/w)

Would you please look over these solved cases?
molecule	unit.descriptor	Solubility in PG Monolaurate
CC1(C)O[C@@H]2C[C@H]3[C@@H]4CCC5=CC(=O)C=C[C@]5(C)[C@H]4[C@@H](O)C[C@]3(C)[C@]2(C(=O)CO)O1 [Desonide]	% w/w	0.40
CCC(=O)OCC(=O)[C@@]1(OC(=O)CC)[C@@H](C)C[C@H]2[C@@H]3CCC4=CC(=O)C=C[C@]4(C)[C@@]3(F)[C@@H](O)C[C@@]21C [Betamethasone Dipropionate]	% w/w	2.30
CCCC(=O)O[C@]1(C(=O)CO)CC[C@H]2[C@@H]3CCC4=CC(=O)CC[C@]4(C)[C@H]3[C@@H](O)C[C@@]21C [Hydrocortisone Butyrate]	% w/w	1.35

(P) CCC(=O)O[C@]1(C(=O)CCl)[C@@H](C)C[C@H]2[C@@H]3CCC4=CC(=O)C=C[C@]4(C)[C@@]3(F)[C@@H](O)C[C@@]21C [Clobetasol Propionate]
(Q) CC1(C)O[C@@H]2C[C@H]3[C@@H]4CCC5=CC(=O)C=C[C@]5(C)[C@@]4(F)[C@@H](O)C[C@]3(C)[C@]2(C(=O)CO)O1 [Triamcinolone Acetonide]
Enquiry: Compare reported Solubility in PG Monolaurate values for P and Q . Which is lower? Lab log: write the label of the selected item as the result.
Return: Q

----------
# experiment.notes: Solubility of corticosteroids in neat solvents, measured gravimetrically
# Assay type: physicochemical
# experimental.context: neat PG monocaprylate; room temperature; examined at about 24 hours
assay.metric: Solubility in PG Monocaprylate (% w/w)

Some compounds with known Solubility in PG Monocaprylate results, for comparison:
compound	assay.metric	unit.descriptor	numeric.result
CC1(C)O[C@@H]2C[C@H]3[C@@H]4CCC5=CC(=O)C=C[C@]5(C)[C@@]4(F)[C@@H](O)C[C@]3(C)[C@]2(C(=O)CO)O1 [Triamcinolone Acetonide]	Solubility in PG Monocaprylate	% w/w	0.65
CCC(=O)OCC(=O)[C@@]1(OC(=O)CC)[C@@H](C)C[C@H]2[C@@H]3CCC4=CC(=O)C=C[C@]4(C)[C@@]3(F)[C@@H](O)C[C@@]21C [Betamethasone Dipropionate]	Solubility in PG Monocaprylate	% w/w	4.0
CC1(C)O[C@@H]2C[C@H]3[C@@H]4CCC5=CC(=O)C=C[C@]5(C)[C@H]4[C@@H](O)C[C@]3(C)[C@]2(C(=O)CO)O1 [Desonide]	Solubility in PG Monocaprylate	% w/w	1.15
CCCC(=O)O[C@]1(C(=O)CO)CC[C@H]2[C@@H]3CCC4=CC(=O)CC[C@]4(C)[C@H]3[C@@H](O)C[C@@]21C [Hydrocortisone Butyrate]	Solubility in PG Monocaprylate	% w/w	2.0
C[C@@H]1C[C@H]2[C@@H]3CCC4=CC(=O)C=C[C@]4(C)[C@@]3(Cl)[C@@H](O)C[C@]2(C)[C@@]1(OC(=O)c1ccco1)C(=O)CCl [Mometasone Fuorate]	Solubility in PG Monocaprylate	% w/w	0.7

(1) CCC(=O)O[C@]1(C(=O)SCF)[C@H](C)C[C@H]2[C@@H]3C[C@H](F)C4=CC(=O)C=C[C@]4(C)[C@@]3(F)[C@@H](O)C[C@@]21C [Fluticasone Propionate]
(2) CCC(=O)O[C@]1(C(=O)CCl)[C@@H](C)C[C@H]2[C@@H]3CCC4=CC(=O)C=C[C@]4(C)[C@@]3(F)[C@@H](O)C[C@@]21C [Clobetasol Propionate]
Enquiry: Given the listed records, identify the one among 1 and 2 with higher Solubility in PG Monocaprylate. I would appreciate it if you answered with the label of your choice.
Return: 2
(2: 4.0 % w/w, 1: 0.3 % w/w)
